Data provenance is ChEMBL document CHEMBL1144583.

Reported inhibition is given for each of the following compounds.
Species on record: Rattus norvegicus
Assay: Inhibition of liver microsomal EROD at 25 uM
Write the answer as a number in %, unit excluded.

# COMPOUND, OBSERVABLE, SCALE_UNIT, VALUE
rows = [
    ("CC(=O)Oc1ccc2c(C)cc(=O)oc2c1OC(C)=O", "inhibition", "%", 58.4),
]

Qu. Given the compound `CC(=O)Oc1ccc2c(OC(C)=O)c(Cc3c(OC(C)=O)c4ccc(OC(C)=O)c(OC(C)=O)c4oc3=O)c(=O)oc2c1OC(C)=O` , what is its reported inhibition?
Ans. 39.3

Qu. Same question, `CC(=O)Oc1ccc2c(=O)c(-c3ccccc3)coc2c1OC(C)=O` this time
Ans. 32.4
